Field pIC50: reported value for TYRO3 (Homo sapiens, UniProt Q06418); entries drawn from several documents.
pIC50: −log10 of the molar value.

Query: Quick one: pIC50 of CCCC(C)Nc1ncc2c(N3CCC(NC)CC3)ncc([C@H]3CC[C@H](O)CC3)c2n1 (some centres unmarked) ?
Reply: ≥ 7.00

Query: What do you get for O[C@H]1CC[C@H](c2cnc(OC3CCNCC3)c3cnc(N[C@H]4CCCOC4)nc32)CC1 ?
Reply: 6.00 to 7.00

Query: Next entry: COC[C@H](C)Nc1ncc2c(OC3CCOCC3)ncc(-c3cccc(C(N)=O)c3)c2n1
Reply: 5.00 to 6.00

Query: Another: CC(CCOC(F)F)Nc1ncc2c(-c3ccc(CN4CCOCC4)cc3)cc(C3CCC(O)CC3)n2n1 (centres unmarked)
Reply: ≥ 7.00

Query: For COC[C@H](C)Nc1ncc2c(-c3cnn(CC4CCCO4)c3)cc([C@H]3CC[C@H](O)CC3)n2n1 (some centres unmarked) then?
Reply: ≥ 7.00

Query: Then this molecule: CNS(=O)(=O)N[C@H]1CC[C@H](c2cnc(OC3CCOCC3)c3cnc(N[C@@H](C)COC)nc32)CC1
Reply: ≥ 7.00

Query: What do you have for COC[C@H](C)Nc1ncc2c(-c3cnn([C@H]4CCN(C)C4=O)c3)cc([C@H]3CC[C@H](O)CC3)n2n1 ?
Reply: ≥ 7.00

Query: Next molecule: NCC1(c2cccc(-c3ncnc4[nH]ccc34)c2)Cc2cccnc2C1 (centres unmarked)
Reply: < 5.52
